Provide the recorded i.v. dose of antagonist causing 50% reversal of clonidine block on vas deferens for the entries that follow.
System: presynaptic α2-adrenoreceptors
Assay Procedure: Presynaptic α2-adrenoreceptor antagonism in the pithed rat: reversal of clonidine block on vas deferens, intravenous
Format: in vivo
Recorded Conditions: pithed rat, cumulative i.v. dosing, clonidine 100 μg/kg i.v.; mean of minimum 4 rats
Where a name gives a salt, the structure may show the parent alone.

Lab note: measured i.v. dose of antagonist causing 50% reversal of clonidine block on vas deferens of Cc1ccc(N(CC2=NCCN2)c2cccc(O)c2)cc1 [Phentolamine mesylate] was 0.12 mg/kg

# i.v. dose of antagonist causing 50% reversal of clonidine block on vas deferens of COC(=O)[C@@H]1[C@H]2C[C@H]3c4[nH]c5ccccc5c4CCN3C[C@@H]2CC[C@@H]1O [Yohimbine HCl] = 0.86 mg/kg

// i.v. dose of antagonist causing 50% reversal of clonidine block on vas deferens value for CN1CCN2c3ccccc3Cc3ccccc3C2C1 (stereo not shown) [Mianserin HCl] : > 4.4 mg/kg

Short answer for COC1(C2=NCCN2)COc2ccccc2O1 (racemic) : i.v. dose of antagonist causing 50% reversal of clonidine block on vas deferens was 0.002 mg/kg
